Would you mind telling me the reported EC50 of each entry?
Target: BCL6 (Homo sapiens (Human))
Assay: BCL6 TR-FRET assay (BCL6-Avitag-Biotin / BCoR-Cy5 peptide)
Format: binding

Please review the entries below; each comes with its answer.
Please look up its EC50: CNC(=O)COc1cc2cc(Nc3nc(N4CCN(C)C(COc5cccc6c5C(=O)N(C5CCC(=O)NC5=O)C6=O)C4)ncc3Cl)ccc2n(C)c1=O (centres unmarked)
50 to 100 nM

Please look up its EC50: CNC(=O)COc1cc2cc(Nc3nc(N4CCN(CC5CCN(c6cccc7c6C(=O)N(C6CCC(=O)NC6=O)C7=O)CC5)CC4)ncc3Cl)ccc2n(C)c1=O (centres unmarked)
10 to 50 nM

Please look up its EC50: CNC(=O)COc1cc2cc(Nc3nc(N4CCN(CC5CCN(c6ccc(C(=O)NC7CCC(=O)NC7=O)nn6)CC5)CC4)ncc3Cl)ccc2n(C)c1=O (centres unmarked)
< 10 nM

Please look up its EC50: CNC(=O)COc1cc2cc(Nc3nc(N4CCN(CC5CCN(c6ccc7c(c6)C(=O)N(C6CCC(=O)NC6=O)C7=O)CC5)C(=O)C4)ncc3Cl)ccc2n(C)c1=O (centres unmarked)
10 to 50 nM

Please look up its EC50: CNC(=O)COc1cc2cc(Nc3nc(N4CCOC(CN5CCN(c6ccc7c(c6)C(=O)N(C6CCC(=O)NC6=O)C7=O)CC5)C4)ncc3Cl)ccc2n(C)c1=O (centres unmarked)
< 10 nM

Fill in EC50 for each of the 3 molecules listed.
1. CNC(=O)COc1cc2cc(Nc3nc(N4CCC[C@H](COc5cccc6c5C(=O)N(C5CCC(=O)NC5=O)C6=O)C4)ncc3Cl)ccc2n(C)c1=O (some centres unmarked)
2. CNC(=O)COc1cc2cc(Nc3nc(N4CCO[C@H](COc5ccc6c(c5)C(=O)N(C5CCC(=O)NC5=O)C6=O)C4)ncc3Cl)ccc2n(C)c1=O (some centres unmarked)
3. CNC(=O)COc1cc2cc(Nc3cc(N4CCC(CN5CCN(c6ccc7c(c6)C(=O)N(C6CCC(=O)NC6=O)C7=O)CC5)CC4)ncc3Cl)ccc2n(C)c1=O (centres unmarked)

> 100 nM
> 100 nM
50 to 100 nM
